assayed target: Calmodulin-1 (Homo sapiens) (UniProt P0DP23)
assay comment: CALM1 binders on microarrays, EGTA buffer, profiling panel, biochemical, small-molecule microarray, Cy5-labelled CALM1 (AID 1111);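 note: labelled calmodulin applied in Tris saline Tween buffer holding calcium plus EGTA and DTT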
recorded conditions: Cy5-CALM1 binding fluorescence, higher = more signal
Threshold check on composite z-score: at or above 0.6 gives class 1, strictly below gives class 0.

Determine whether this compound has composite z-score no lower than 0.6: `CO[C@H]1O[C@H](CO)[C@@H](OC(=O)Nc2ccccc2-c2ccccc2)[C@H](OC(=O)Nc2ccc3c(c2)OCO3)[C@H]1OC(=O)Nc1ccc2c(c1)OCO2`
class 0

Tell me whether composite z-score is at least 0.6 here: `CCC[C@@H]1C[C@@]1(CCC)[C@@H](NC(=O)OCc1ccccc1)c1ccc(-c2ccccc2)cc1`
class 0

Quick check: does `C=CCOC(=O)[C@H]1[C@@H]2C(=O)O[C@@H](c3ccccc3)[C@@H](c3ccccc3)N2[C@@H](c2ccc(OCCOC(=O)[C@H]3C[C@H]4C(=O)N[C@@H](CC(C)C)C(=O)N4[C@H]3c3cccc(OCCO)c3)cc2)[C@]12C(=O)Nc1ccc(I)cc12` have composite z-score greater than or equal to 0.6?
class 1

Has C=CCC(OC(C)=O)[C@@H]1[C@@H](N(Cc2cccc3ccccc23)C(=O)c2cccc3ccccc23)c2cc(OCCCO)ccc2N1C(=O)c1ccc(-c2ccccc2)cc1 (stereo partly specified) a recorded composite z-score greater than or equal to 0.6?
class 0

Can CC1CC/C=C\[C@H]2OC34C=CCN(C(C)C)C(=O)[C@H]3N(CCCCCCO)C(=O)[C@@H]4C2C(=O)O1 (stereo partly specified) be said to have composite z-score at or above 0.6?
class 0
